Measured values drawn from ChEMBL document CHEMBL1275300 for this set.

IC90 listing for selected molecules.
System: Mycobacterium tuberculosis
Experiment: Antimicrobial activity against Mycobacterium tuberculosis H37Rv ATCC 27294 by microplate alamar blue assay
Type: functional, organism-based

Example results:
{"molecule": "COC(=O)Cn1nc(-c2ccc(Br)cc2)ccc1=O", "assayed target": "Mycobacterium tuberculosis", "assay readout": "IC90", "measured result": "> 100 µg/mL"}
{"molecule": "CCOC(=O)C(C)n1nc(-c2ccc(Br)cc2)ccc1=O (stereo not drawn)", "assayed target": "Mycobacterium tuberculosis", "assay readout": "IC90", "measured result": "47.5 µg/mL"}
{"molecule": "CCOC(=O)C(C)n1nc(-c2ccc(Cl)cc2)ccc1=O (stereo not drawn)", "assayed target": "Mycobacterium tuberculosis", "assay readout": "IC90", "measured result": "46 µg/mL"}
{"molecule": "C=CCn1nc(-c2ccc(Cl)cc2)ccc1=O", "assayed target": "Mycobacterium tuberculosis", "assay readout": "IC90", "measured result": "61.6 µg/mL"}
{"molecule": "C#CCn1nc(-c2ccc(Cl)cc2)ccc1=O", "assayed target": "Mycobacterium tuberculosis", "assay readout": "IC90", "measured result": "> 100 µg/mL"}

In the following, a different molecule is considered.
Q: Name the reported IC90 value associated with the molecule CCOC(=O)Cn1nc(-c2ccc(Br)cc2)ccc1=O
A: > 100 µg/mL
